Target: Yer184c (UniProt P39961)
Sequence: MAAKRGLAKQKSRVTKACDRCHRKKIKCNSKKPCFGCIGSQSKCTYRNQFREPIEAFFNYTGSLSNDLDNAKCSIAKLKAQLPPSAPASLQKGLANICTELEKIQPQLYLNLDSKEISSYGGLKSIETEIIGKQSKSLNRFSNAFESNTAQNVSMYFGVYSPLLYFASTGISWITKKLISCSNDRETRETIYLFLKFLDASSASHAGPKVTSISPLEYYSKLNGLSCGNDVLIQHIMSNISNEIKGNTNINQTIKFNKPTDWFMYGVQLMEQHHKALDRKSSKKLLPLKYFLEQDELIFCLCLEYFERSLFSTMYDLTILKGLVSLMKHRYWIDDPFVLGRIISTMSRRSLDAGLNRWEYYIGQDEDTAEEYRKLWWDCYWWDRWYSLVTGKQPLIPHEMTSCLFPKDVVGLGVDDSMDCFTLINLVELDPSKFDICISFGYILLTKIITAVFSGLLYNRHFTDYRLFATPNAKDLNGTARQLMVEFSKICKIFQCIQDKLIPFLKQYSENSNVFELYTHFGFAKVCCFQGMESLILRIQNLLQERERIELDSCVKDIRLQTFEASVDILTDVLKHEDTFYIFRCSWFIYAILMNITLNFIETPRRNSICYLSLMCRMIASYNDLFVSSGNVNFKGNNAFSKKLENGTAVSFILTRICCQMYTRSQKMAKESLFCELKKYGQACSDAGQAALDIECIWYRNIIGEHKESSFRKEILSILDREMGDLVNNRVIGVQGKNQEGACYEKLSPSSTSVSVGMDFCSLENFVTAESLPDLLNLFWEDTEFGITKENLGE
Assay: PBM E-score (8-mer binding enrichment) (E-score (-0.5 to 0.5)); higher = stronger / more preferred TF binding
Settings: protein concentration: 100 nM; construct: GST-full length
Over roughly 33,000 sequences, “E-score (-0.5 to 0.5)” has its median near -0.016; the highest 2% begin near 0.3. The list comes from a sample in which the highest values are over-represented; it also holds close analogues and randomly drawn sequences.
property: PBM E-score

In [3]: df
Out[3]:
    primary_sequence  reported_result
 0          ATAAAACC          -0.0255
 1          CGGAACCC            0.279
 2          ATCCGGTA            0.206
 3          CGGAACCG            0.364
 4          TGGAACCA            0.138
 5          GAATGCTC           -0.157
 6          AACGGACT             0.14
 7          ATCCGGCC            0.358
 8          CTGCATAA             0.11
 9          ATAGCTGC           0.0565
10          CCGAACCG            0.329
11          TACGGATA            0.195
12          CCGACTTC           -0.243
13          AATTCCCG            0.272
14          ACGAATCC            0.115
15          CACGGGGC          -0.0464
16          CCGAACGC            0.274
17          AATTCCGC            0.208
18          AATAAATA            0.414
19          CTTATAAA            0.174
20          CCGACTGA          0.00051
21          CCGAACGG            0.325
22          CCGAACCA            0.154
23          AATTCCGT            0.328
24          CGATATTA            0.343
25          ATGCGGCG           0.0251
26          CGGAACCA            0.338
27          ATGCGGCC            0.109
28          GGGTAGAA          -0.0545
29          GTTATAAA           0.0949
30          GACGGATA            0.125

Hey, just so you know, these numbers are from the supplement of paper PMC3334620.
